# protocol notes: xn = mol fraction of the nth substance listed, in the solute-free solvent
# assay conditions: 293.15 K; x2 = 0.6

compound: S=c1[nH]ncs1 + CCCO + O
solubility (g/100 g solution): 11.9

compound: S=c1[nH]ncs1 + CCO + O
solubility (g/100 g solution): 12.4

compound: CCCCCOC(=O)Nc1nc(=O)n(C2OC(C)C(O)C2O)cc1F (centres undefined) + CCOC(C)=O + CCCCCC
solubility (g/100 g solution): 0.581

compound: CC(N)C(=O)O (centres undefined) + O + CC(C)=O
solubility (g/100 g solution): 0.17

* * *

# protocol notes: xn = mol fraction of the nth substance listed, in the solute-free solvent
# assay conditions: 323.15 K; x2 = 0.7
The molecules listed here are annotated with their solubility (g/100 g solution).
observable: solubility (g/100 g solution)

molecule: S=c1[nH]ncs1 + CO + O
value: 29.6

molecule: CC(N)C(=O)O (stereo not drawn) + O + CCCO
value: 2.65

molecule: S=c1[nH]ncs1 + CCO + O
value: 28

molecule: OCCN(CCO)c1nc(N2CCCCC2)c2nc(N(CCO)CCO)nc(N3CCCCC3)c2n1 + CC(C)O + O
value: 28.6

molecule: CC(N)C(=O)O (stereo not drawn) + O + CC(C)O
value: 1.85

molecule: CC(N)C(=O)O (stereo not drawn) + O + CC(C)=O
value: 1.14

molecule: OCCN(CCO)c1nc(N2CCCCC2)c2nc(N(CCO)CCO)nc(N3CCCCC3)c2n1 + CCO + O
value: 28.4

molecule: CC(N)C(=O)O (stereo not drawn) + O + CCO
value: 2.62

molecule: S=c1[nH]ncs1 + CCCO + O
value: 25.2

molecule: OCCN(CCO)c1nc(N2CCCCC2)c2nc(N(CCO)CCO)nc(N3CCCCC3)c2n1 + CO + O
value: 17.4

molecule: CCCCCOC(=O)Nc1nc(=O)n(C2OC(C)C(O)C2O)cc1F (stereo not drawn) + CCOC(C)=O + CCCCCCC
value: 1.98

molecule: CC(N)C(=O)O (stereo not drawn) + O + CO
value: 4.69

molecule: S=c1[nH]ncs1 + CC(C)=O + O
value: 39.3

* * *

Here the recorded solubility (g/100 g solution) is given for each entry.
# protocol notes: xn = mol fraction of the nth substance listed, in the solute-free solvent
# assay conditions: 298.15 K; x2 = 0.2
observable: solubility (g/100 g solution)

compound: Cc1ncc(C[n+]2csc(CCO)c2C)c(N)n1.O=[N+]([O-])[O-] + O + CO
observable: solubility (g/100 g solution)
value: 0.636

compound: S=c1[nH]ncs1 + CCCO + O
observable: solubility (g/100 g solution)
value: 8.22

compound: S=c1[nH]ncs1 + CO + O
observable: solubility (g/100 g solution)
value: 2.68

compound: S=c1[nH]ncs1 + CCO + O
observable: solubility (g/100 g solution)
value: 5.3

compound: S=c1[nH]ncs1 + CC(C)=O + O
observable: solubility (g/100 g solution)
value: 12.5

* * *

# protocol notes: xn = mol fraction of the nth substance listed, in the solute-free solvent
# assay conditions: 288.15 K; x2 = 0.4117
Reported solubility (g/100 g solution) values for the following compounds.

compound: c1ccc2[nH]c(-c3cscn3)nc2c1 + CC(C)O + O
solubility (g/100 g solution): 0.154
--
compound: CN1CCN(C2=Nc3cc(Cl)ccc3Nc3ccccc32)CC1 + CC(C)O + O
solubility (g/100 g solution): 0.781
--
compound: Nc1cccc(S(=O)(=O)c2cccc(N)c2)c1 + CC(C)O + O
solubility (g/100 g solution): 0.513
--
compound: Cc1[nH]c(=O)c(C#N)cc1-c1ccncc1 + CC(C)O + O
solubility (g/100 g solution): 0.0102
--
compound: c1ccc2[nH]c(-c3cscn3)nc2c1 + CCCO + O
solubility (g/100 g solution): 0.331
--
compound: Nc1nccnc1Cl + CC(C)O + O
solubility (g/100 g solution): 0.585
